These measurements were taken from PubChem BioAssay (NCI).

# Test system: OVCAR-8 ovarian
# Test: NCI tumour cell line growth inhibition, 48 h
Measured endpoint: TGI

Illustrative cases are given below, each with its answer.
# Molecule, Test value
rows = [
    ("O=C1Cc2ccccc2N1c1c(Cl)cccc1Cl", "> 100 µM"),
    ("C[C@@H]1OC(=O)C[C@H]2CC(=O)N(CCC3CN(S(=O)(=O)C(F)(F)F)c4ccc(Cc5ccc6c(c5)C(CCN5C[C@H]7[C@@H](CC(=O)O[C@H]7C)CC5=O)CN6S(=O)(=O)C(F)(F)F)cc43)C[C@@H]21 (stereo not given in full)", "> 100 µM"),
    ("COc1cc(C2CC(c3ccc(Nc4ccnc5cc(Cl)ccc45)cc3)=NN2C=O)cc(OC)c1OC (stereo not given)", "> 100 µM"),
    ("CO/N=C(\\COc1ccc2c(c1)oc(=O)c1cc(OC)ccc12)c1cccc(OC)c1", "> 100 µM"),
    ("O=NNc1cnccn1", "> 1250 µM"),
    ("Cn1cnc([N+](=O)[O-])c1SC1=NCCS1", "> 100 µM"),
    ("Cc1[nH]n(-c2ccc(S(=O)(=O)O)cc2)c(=O)c1N=Nc1ccccc1", "> 100 µM"),
    ("CC(C)c1ccc2c(c1)C=C1OC(=O)[C@]3(C)CCC[C@@]2(C)C13 (stereo not given in full)", "> 100 µM"),
    ("O=C1C=CC[C@H](/C=C/C[C@@H](O)C[C@H](O)/C=C/c2ccccc2)O1", "32.9 µM"),
]

Prompt: Entry CCCC(=O)/C=C/S/C=C/C(=O)CCC , system OVCAR-8 ovarian: what TGI was measured?
Completion: 5.46 µM

----------
# Tested on: EKVX NSCLC
# Test: NCI tumour cell line growth inhibition, 48 h; in the data active means GI50 below about 0.43 µM; inactive means the rest
Outcome field: choose from YES (active), NO (inactive)

Reference set, count: 5
# Molecule, Label class
rows = [
    ("COc1cc(/C=C/C(=O)C(C(=O)/C=C/c2ccc(OC(=O)CCNc3nnc(C)s3)c(OC)c2)C(=O)CCNc2nnc(C)s2)ccc1OC(=O)CCNc1nnc(C)s1", "NO"),
    ("Cc1cc(NCCCCNc2ccnc3cc(Cl)ccc23)nc(Nc2ccc(C(=O)N3CCCC3)cc2)n1", "NO"),
    ("O[C@@H]1CCCN1Cc1cc2cc3c(cc2c2cc(OCc4ccccc4)ccc12)OCO3", "NO"),
    ("Cc1ccc(NSc2ccccc2[N+](=O)[O-])cc1", "NO"),
    ("COC(=O)c1oc2c(O)c(OC)c(Br)cc2c1C", "NO"),
]

Prompt: What did this assay record as the result for C/C1=C\CC[C@@]2(C)O[C@@H]2C[C@@H]2[C@H](C/C(C)=C/CC1)OC(=O)C21CCN=N1 (some centres undefined) ?
Completion: NO

Prompt: Queued: CO/N=C(\COc1ccc2c(c1)oc(=O)c1cc(OC)ccc12)c1ccc(F)cc1
Completion: NO

Prompt: Also, O=c1[nH]ccc2nc(-c3ccc(CN4CCC(c5nc(-c6ccccn6)n[nH]5)CC4)cc3)c(-c3ccccc3)cc12 please.
Completion: NO

Prompt: Query CCC[CH2][Sn]1([CH2]CCC)[O]C(=O)c2cccc(OC)c2[O]1 next
Completion: NO

Prompt: Please do the same for COc1cc2c3c(n(CCCNC(=O)OCC4c5ccccc5-c5ccccc54)c(=O)c2cc1OC)-c1cc2c(cc1C3=O)OCO2 as well.
Completion: NO

Prompt: Would you kindly repeat that for COc1ccc(Cn2cnc3cc(C(=O)Nc4cccc5ccccc45)ccc32)c(OC)c1 ?
Completion: YES

Prompt: Same again, this time with O=C(NCC(=O)N1CC[C@H](NC2CCC(O)(c3ccc(-c4ncccn4)cn3)CC2)C1)c1cccc(C(F)(F)F)c1 (some centres undefined)
Completion: NO

Prompt: Another molecule to check: Cc1ccc(/C=C/C(=O)c2ccc(N)cc2)c(C)c1
Completion: NO

Prompt: One more molecule: COc1ccc(N(C)c2nc(Cl)nc3ccn(C)c23)cc1
Completion: YES

Prompt: And for O=C1c2cccc3cccc(c23)C(=O)N1CCCCN1CCN(CCCCOc2ccc(-c3nc4ccc(N5CCOCC5)cc4[nH]3)cc2)CC1 ?
Completion: NO

Prompt: Now consider CC(=O)[O-].[Ni].c1ccc(/C(=N\Nc2ccccn2)c2ccccn2)cc1 .
Completion: YES

Prompt: What would you report for O=C(Nc1cccc([N+](=O)[O-])c1)c1ccc2ccccc2c1O ?
Completion: NO

Prompt: Please give the result for Cc1cc(O)ccc1O too.
Completion: NO

Prompt: Lookup COc1ccc(Cn2cc3c(c2-c2ccc(O)cc2)CCc2cnoc2-3)cc1
Completion: NO

----------
# Tested on: SK-OV-3 ovarian
# Test: NCI tumour cell line growth inhibition, 48 h
# maps each entry to its TGI
# value in µM; strip the unit string

Prompt: If you can, please state the reported TGI value of COC(=O)C1=COC2OC3/C(=C\c4ccc(O)c(OC)c4)C(=O)OC34C=CC1C24 (stereo not given) .
Completion: 31

Prompt: Request: O=c1[nH]cc(N(CCCl)CCCl)c(=O)[nH]1
Completion: 183

Prompt: Same again, this time with N#Cc1c(-c2ccc(Cl)cc2)c(-c2ccc(Cl)cc2)nn(CCOC(=O)CCC(=O)O)c1=O
Completion: 30.8

Prompt: // repeat for COCC(=O)OC1CCn2c1nc1c2C(=O)C(C)=C(NC(C)=O)C1=N (stereo not given) and report
Completion: 37.5

Prompt: And CCCCCCCCCCCCCC(=O)OC(/C=C/C(C)C)C(O)C(O)C(OC)C(=O)NC1CCCCNC1=O (stereo not given) ?
Completion: 10.4

----------
# Test system: SK-OV-3 ovarian
# Test: NCI tumour cell line growth inhibition, 48 h
Measured endpoint: TGI (µM)
The reply should contain only the number, in µM.

See these solved cases before continuing.
# Smiles data, TGI, µM
data = [
    ("Cc1ccc(NSc2ccccc2[N+](=O)[O-])cc1", 20.1),
    ("CCCCCCCCCCCCSC(=NC)NC", 19),
]

Please look at the following compound next.
Prompt: Requested field: TGI. Item: COc1ccc2c[n+](C)c3c4cc(OC)c(OC)cc4ccc3c2c1
Completion: 14.7

----------
# System: HOP-18 NSCLC
# Test: NCI tumour cell line growth inhibition, 48 h
Recorded measurements of TGI, one per entry

Consider the reported TGI for these compounds:
# Compound, TGI
records = [
    ("Cc1ccc(-c2nc3c(C(=O)NCCN(C)C)cccc3[nH]2)cc1", "51.5 µM"),
    ("CCOP(=O)(OCC)/C(C#N)=C/c1ccc[nH]1", "> 100 µM"),
    ("O=c1[nH]cc(N(CCCl)CCCl)c(=O)[nH]1", "199 µM"),
    ("O=C1CCCC(=O)C1=C(O)CCCCCCCCCCc1ccccc1", "> 100 µM"),
    ("CN(C)CC(C)(C)C(/C=C/c1ccccc1)=N\\Nc1ccccc1", "73.1 µM"),
    ("C=CCC12CC(=O)C=C1CCC1(C2)OCCO1 (stereo unspecified)", "> 100 µM"),
    ("O=C(CC/C(CC(=O)c1ccc(Cl)cc1)=N/O)Nc1ccc(Cl)c(Cl)c1", "> 100 µM"),
    ("N#Cc1c(-c2ccc(Cl)cc2)c(-c2ccc(Cl)cc2)nn(CCOC(=O)CCC(=O)O)c1=O", "> 100 µM"),
    ("Cc1ccc(NC(=O)C(=O)C2NC(=S)NC2=O)c([N+](=O)[O-])c1 (stereo unspecified)", "> 100 µM"),
    ("O=C1C2C(C(=O)N1c1ccccc1)C1(c3ccccc3)OC2(c2ccccc2)c2ccccc21 (stereo unspecified)", "> 100 µM"),
]

Prompt: # get_value(readout= TGI, system= HOP-18 NSCLC) for CC(C)[Si](OCC1CC(C[C@H]2CC(C[C@H]3C[C@@H](CO[Si](C(C)C)(C(C)C)C(C)C)OC(C)(C)O3)OC(C)(C)O2)OC(C)(C)O1)(C(C)C)C(C)C (stereo partly specified)
Completion: > 100 µM

----------
TGI listing for selected compounds.
# Test system: HCC-2998 colon
# Test: NCI tumour cell line growth inhibition, 48 h

# Compound, TGI
data = [
    ("Nc1ccc(C(=O)NN2C(=O)C(Cl)C2c2ccc([N+](=O)[O-])cc2)cc1 (stereo not given)", "21.2 µM"),
]

Prompt: For COc1cc(CNC(=O)[C@H](Cc2ccc(O)cn2)NC(C)=O)cc(OC)c1 , what is its reported TGI?
Completion: > 100 µM

Prompt: Moving on to the next compound: COc1ccc(C(=O)Cn2c(C(C)=O)nc3ccccc32)cc1
Completion: > 100 µM

Prompt: Also Cc1nc(N)c(N2CCN(Cc3ccccc3)CC2)c(=O)[nH]1 ?
Completion: > 100 µM

Prompt: Param item: CCOC(=O)N[C@H]1CCc2cc(O)c(OC)c(OC)c2-c2ccc(SC)c(=O)cc21
Completion: > 100 µM

Prompt: Again, but for CCN(CC)CCC(=O)c1ccccc1
Completion: > 100 µM

Prompt: Check CN(C)CCCNC(=O)c1cc(NC(=O)c2cc(NC(=O)[C@H]3C[C@@H]3C(=O)Nc3cc(C(=O)Nc4cc(C(=O)NCCCN(C)C)n(C)c4)n(C)c3)cn2C)cn1C too.
Completion: > 100 µM

Prompt: Ok, now Cc1ccc(S(=O)(=O)N/N=C/c2oc(-c3ccccc3Cl)c(-c3ccccc3Cl)c2[N+](=O)[O-])cc1
Completion: 47.9 µM

Prompt: Next compound up: Cn1cnc([N+](=O)[O-])c1SC1=NCCS1
Completion: > 100 µM

Prompt: And the next one, CCC[CH2][Sn]1([CH2]CCC)[O]C(=O)c2cccc(OC)c2[O]1 ?
Completion: 2.15 µM
